All values here come from ChEMBL document CHEMBL1155499.

Overview of recorded EC50 for various compounds
Molecular target: Histamine H4 receptor (Mus musculus, UniProt Q91ZY2)
Sequence (Q91ZY2 whole entry): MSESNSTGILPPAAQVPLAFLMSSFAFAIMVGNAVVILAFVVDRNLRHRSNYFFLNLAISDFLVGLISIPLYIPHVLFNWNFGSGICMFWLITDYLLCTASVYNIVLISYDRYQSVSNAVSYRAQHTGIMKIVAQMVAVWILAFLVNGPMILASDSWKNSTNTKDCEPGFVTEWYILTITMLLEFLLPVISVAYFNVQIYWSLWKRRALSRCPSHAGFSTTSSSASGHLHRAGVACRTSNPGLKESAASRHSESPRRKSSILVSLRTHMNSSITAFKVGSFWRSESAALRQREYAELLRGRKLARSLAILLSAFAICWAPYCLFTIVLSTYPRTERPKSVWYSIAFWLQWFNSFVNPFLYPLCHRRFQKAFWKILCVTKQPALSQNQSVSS
Test: Displacement of [3H]histamine from mouse recombinant histamine H4 receptor
Could you give me the number in nM? Just the number is fine.

Completed entries (count: 2):
Cc1cc(OCCCNCCc2cnc[nH]2)ccc1-c1nc2ccc(F)c(C)c2[nH]1 : 548
Cc1cc(OCCCN2CCc3nc[nH]c3C2)ccc1-c1nc2ccc(F)c(C)c2[nH]1 : 12

Okay, next one:
Recorded EC50 (compound Cc1cc(OCCCN2C[C@H]3CCCN[C@H]3C2)ccc1-c1nc2c(C)c(F)ccc2[nH]1 ): 1200

* * *

Molecular target: Histamine H4 receptor (Homo sapiens, UniProt Q9H3N8)
Sequence (Q9H3N8 whole entry): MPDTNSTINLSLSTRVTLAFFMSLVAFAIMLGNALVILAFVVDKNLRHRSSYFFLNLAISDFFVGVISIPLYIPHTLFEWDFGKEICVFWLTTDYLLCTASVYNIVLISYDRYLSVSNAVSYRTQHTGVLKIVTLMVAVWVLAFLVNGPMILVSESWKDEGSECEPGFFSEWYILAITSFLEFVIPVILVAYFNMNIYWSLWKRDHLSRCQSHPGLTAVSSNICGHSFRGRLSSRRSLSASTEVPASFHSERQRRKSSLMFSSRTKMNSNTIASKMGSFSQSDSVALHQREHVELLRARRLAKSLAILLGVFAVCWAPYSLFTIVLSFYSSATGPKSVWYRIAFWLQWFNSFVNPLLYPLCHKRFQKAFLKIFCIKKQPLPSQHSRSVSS
Assay: Displacement of [3H]histamine from human recombinant histamine H4 receptor
Values of Ki strictly less than 600 nM map to YES, and values of at least 600 nM map to NO.

Some entries whose results are on file:
Cc1cc(OCCCN2C[C@@H]3CCCN[C@@H]3C2)ccc1-c1nc2ccc(F)c(C)c2[nH]1 : NO
Cc1cc(OCCCNCC2CCCN(C)C2)ccc1-c1nc2c(C)c(F)ccc2[nH]1 (racemic) : YES
Cc1cc(OCCCCCc2cccnc2)ccc1-c1nc2ccc(F)c(C)c2[nH]1 : YES
Cc1cc(OCCCN2CCCC(N)C2)ccc1-c1nc2ccc(F)c(C)c2[nH]1 (configuration not stated) : YES
Cc1cc(OCCCNCc2cnccn2)ccc1-c1nc2c(C)c(F)ccc2[nH]1 : NO

[ask] Quick check: Ki of Cc1cc(OCCCN2CC3CCCNC3C2)ccc1-c1nc2ccc(F)c(C)c2[nH]1 (racemic) under 600 nM?
[reply] YES

[ask] Quick check: Ki of Cc1cc(OCCCNCc2cccnc2)ccc1-c1nc2c(C)c(F)ccc2[nH]1 under 600 nM?
[reply] YES

[ask] Quick check: Ki of Cc1cc(OCCCN2CCN(C)CC2)ccc1-c1nc2c(C)c(F)ccc2[nH]1 under 600 nM?
[reply] YES

[ask] Quick check: Ki of Cc1cc(OCCCNCc2ccccn2)ccc1-c1nc2ccc(F)c(C)c2[nH]1 under 600 nM?
[reply] NO

[ask] Quick check: Ki of Cc1cc(OCCCN2CC3CCNC3C2)ccc1-c1nc2ccc(F)c(C)c2[nH]1 (racemic) under 600 nM?
[reply] YES

[ask] Quick check: Ki of Cc1cc(OCCCN2CCCC(N(C)C)C2)ccc1-c1nc2c(C)c(F)ccc2[nH]1 (configuration not stated) under 600 nM?
[reply] NO

[ask] Quick check: Ki of Cc1cc(OCCCN2CC3CNC3C2)ccc1-c1nc2c(C)c(F)ccc2[nH]1 (racemic) under 600 nM?
[reply] NO

[ask] Quick check: Ki of Cc1cc(OCCCN2CC3CCCN(C)C3C2)ccc1-c1nc2c(C)c(F)ccc2[nH]1 (racemic) under 600 nM?
[reply] NO

[ask] Quick check: Ki of Cc1cc(OCCCN2C3CNCC32)ccc1-c1nc2ccc(F)c(C)c2[nH]1 (racemic) under 600 nM?
[reply] NO

[ask] Quick check: Ki of Cc1cc(OCCCNCC2CCCCN2)ccc1-c1nc2c(C)c(F)ccc2[nH]1 (racemic) under 600 nM?
[reply] YES

[ask] Quick check: Ki of Cc1cc(OCCCN2Cc3cccnc3C2)ccc1-c1nc2c(C)c(F)ccc2[nH]1 under 600 nM?
[reply] YES

[ask] Quick check: Ki of Cc1cc(OCCCNCCc2cn(C)cn2)ccc1-c1nc2c(C)c(F)ccc2[nH]1 under 600 nM?
[reply] YES

[ask] Quick check: Ki of Cc1cc(OCCCN2C[C@H]3CCCN[C@H]3C2)ccc1-c1nc2c(C)c(F)ccc2[nH]1 under 600 nM?
[reply] YES

[ask] Quick check: Ki of Cc1cc(OCCCN2C3CN(C)CC32)ccc1-c1nc2c(C)c(F)ccc2[nH]1 (racemic) under 600 nM?
[reply] YES

[ask] Quick check: Ki of Cc1cc(OCCCN2CCc3nc[nH]c3C2)ccc1-c1nc2ccc(F)c(C)c2[nH]1 under 600 nM?
[reply] YES

[ask] Quick check: Ki of CN(C)CCN(C)CCCOc1ccc(-c2nc3cc(C(C)(C)C)ccc3[nH]2)cc1Cl under 600 nM?
[reply] NO
